MIC overview
Test system: P. aeruginosa (PA)
measurementProtocol: MIC by microdilution, 36 clinical and laboratory strains with known efflux phenotype
Format: cell-based
assayConditions: strain 4, efflux XY+, MHB
metricName: MIC

CC[C@H]1OC(=O)[C@H](C)[C@@H](O[C@H]2C[C@@](C)(OC)[C@@H](O)[C@H](C)O2)[C@H](C)[C@@H](O[C@@H]2O[C@H](C)C[C@H](N(C)C)[C@H]2O)[C@](C)(OC)C[C@@H](C)C(=O)[C@H](C)[C@@H](O)[C@]1(C)O [CLR, clarithromycin] = 512 µg/mL
CC[C@H]1OC(=O)[C@@](C)(F)C(=O)[C@H](C)[C@@H](O[C@@H]2O[C@H](C)C[C@H](N(C)C)[C@H]2O)[C@](C)(OC)C[C@@H](C)C(=O)[C@H](C)[C@H]2N(CCCCn3cc(-c4cccc(N)c4)nn3)C(=O)O[C@]12C [CEM-101, solithromycin] = 128 µg/mL
CC[C@H]1OC(=O)[C@H](C)[C@@H](O[C@H]2C[C@@](C)(OC)[C@@H](O)[C@H](C)O2)[C@H](C)[C@@H](O[C@@H]2O[C@H](C)C[C@H](N(C)C)[C@H]2O)[C@](C)(O)C[C@@H](C)C(=O)[C@H](C)[C@@H](O)[C@]1(C)O [ERY, erythromycin] = 512 µg/mL
CC[C@H]1OC(=O)[C@H](C)[C@@H](O[C@H]2C[C@@](C)(OC)[C@@H](O)[C@H](C)O2)[C@H](C)[C@@H](O[C@@H]2O[C@H](C)C[C@H](N(C)C)[C@H]2O)[C@](C)(O)C[C@@H](C)CN(C)[C@H](C)[C@@H](O)[C@]1(C)O [AZM, azithromycin] = 256 µg/mL
CC[C@H]1OC(=O)[C@H](C)C(=O)[C@H](C)[C@@H](O[C@@H]2O[C@H](C)C[C@H](N(C)C)[C@H]2O)[C@](C)(OC)C[C@@H](C)C(=O)[C@H](C)[C@H]2N(CCCCn3cnc(-c4cccnc4)c3)C(=O)O[C@]12C [TEL, telithromycin] = 128 µg/mL
